Assign pIC50 to each entry below.
# Test system: Plasmodium falciparum
# test: Antimalarial activity against Plasmodium falciparum D10
# Type: functional, organism-based
Numbers only, as −log10 of the molar value.

// known answers, use as guide
[
  {
    "smiles text": "COC1=C(Cc2ccc(Cl)cc2)C(=O)C2=C(NCCS2(=O)=O)C1=O",
    "measured target": "Plasmodium falciparum",
    "pIC50": 5.72
  },
  {
    "smiles text": "COC1=C(Cc2ccc(OC(F)(F)F)cc2)C(=O)C2=C(NCCS2(=O)=O)C1=O",
    "measured target": "Plasmodium falciparum",
    "pIC50": 6.09
  }
]

Query block: Name the recorded pIC50 for COC1=C(Cc2ccc(OC)cc2)C(=O)C2=C(NCCS2(=O)=O)C1=O .
Result block: 5.91

====

# Test system: Plasmodium falciparum
# test: Antimalarial activity against drug resistant Plasmodium falciparum K1
# Format: functional, organism-based
outcome measure: IC50 (nM)
One number for each entry, in nM.

Query block: Reported IC50, compound CCCn1c2c([n+](C(C)C)c1C)C(=O)c1ccccc1C2=O : ____
Result block: 3.2

====

# test: Cytotoxicity against human MRC5 cells incubated for 24 hrs by MTT assay
# Assay type: toxicity, cell-based
outcome measure: CC50 at 24 h (nM)
One number for each entry, in nM.

Query block: Name the reported CC50 at 24 h value associated with the compound CC1(C)CCC2=C(O1)C(=O)c1ccccc1C2=O [ALPHA-LAPACHONE]
Result block: 2090

====

# Tested on: Plasmodium falciparum
# test: Antimalarial activity against Plasmodium falciparum 3D7 by H-hypoxanthine incorporation based assay
# Format: functional, organism-based
outcome measure: pIC50
Give bare numbers, as −log10 of the molar value.

Query block: Which pIC50 is reported for this compound? CC1=C(Cc2ccncc2)C(=O)c2ccccc2C1=O
Result block: 7.17

====

# test: Cytotoxicity against HMEC-1 cells
# Assay type: toxicity, cell-based
# condition set: human
outcome measure: IC50 (µM)
Give bare numbers, in µM.

Some molecules with known IC50 results, for comparison:
[
  {
    "smiles text": "COC1=C(Cc2ccc(Cl)cc2)C(=O)C2=C(NCCS2(=O)=O)C1=O",
    "numeric value": 8.51
  },
  {
    "smiles text": "COC1=C(Cc2ccc(OC(F)(F)F)cc2)C(=O)C2=C(NCCS2(=O)=O)C1=O",
    "numeric value": 3.59
  }
]

Query block: Given the entry COC1=C(Cc2ccc(OC)cc2)C(=O)C2=C(NCCS2(=O)=O)C1=O , report its measured IC50.
Result block: 17.9

====

Task for the reader: assign each of the following molecules its reported IC50.
# Test system: Plasmodium falciparum
# test: Antiplasmodial activity against chloroquine sensitive Plasmodium falciparum F-32 Tanzania incubated for 48 hrs
# Type: functional, organism-based
One number for each entry, in nM.

[
  {
    "smiles text": "O=C(Cn1cc(COC2=CC(=O)c3ccccc3C2=O)nn1)c1ccc(-c2ccccc2)cc1",
    "outcome measure": "IC50",
    "numeric value": 1600
  },
  {
    "smiles text": "O=C1C=C(OCc2cn(/C=C/c3ccc(C(F)(F)F)cc3)nn2)C(=O)c2ccccc21",
    "outcome measure": "IC50",
    "numeric value": 3300
  },
  {
    "smiles text": "O=C1C=C(OCc2cn(-c3ccccc3)nn2)C(=O)c2ccccc21",
    "outcome measure": "IC50",
    "numeric value": 1200
  }
]

Turning to the following molecule.
Query block: Query (molecule): COc1ccc(-n2cc(COC3=CC(=O)c4ccccc4C3=O)nn2)cc1F ; field requested: IC50
Result block: 800
